PROTOCOL_TEXT: Pharmacokinetic (PK) analysis in MH-22A tumor-bearing mice (LC/MS/MS)
Type: in vivo, mouse
STUDY_CONDITIONS: mouse, plasma, oral, 100 mg/kg, 100 mg/kg daily oral, alone; read-out: plasma concentration of epacadostat
MEASURED_ATTRIBUTE: concentration at 4 h (ng/mL)
Lab book: enter the figure in ng/mL, no units written.

Briefly, concentration at 4 h measured for NS(=O)(=O)NCCNc1nonc1C(=NO)Nc1ccc(F)c(Br)c1 [epacadostat, reference compound] : 5890

---

PROTOCOL_TEXT: Pharmacokinetic (PK) analysis in MH-22A tumor-bearing mice (LC/MS/MS)
Type: in vivo, mouse
STUDY_CONDITIONS: mouse, tumor, oral, 100 mg/kg, 100 mg/kg dosed alone; read-out: epacadostat concentration in tumor
MEASURED_ATTRIBUTE: concentration at 4 h (ng/g)
Lab book: enter the figure in ng/g, no units written.

Briefly, concentration at 4 h measured for NS(=O)(=O)NCCNc1nonc1C(=NO)Nc1ccc(F)c(Br)c1 [epacadostat, reference compound] : 9260
